# Test system: HEK-293T
# experimental-details: Multiplex assay against HEK293T
# Assay type: toxicity, cell-based
# assay-setup: human, 12 h, 10 µM, compound concentration 10 uM, replicate 1
experimental-readout: Population Fragmented Nuclei (%)
The answer consists of two parts: a number and, after it, its unit.

Use the examples below as a reference point.
CC(=O)Nc1cccc2c1c(Sc1ccc(Cl)cc1)c(C)n2CC(=O)O    8%
O=C(NCCN1CCC(n2c(=O)[nH]c3cc(Cl)ccc32)CC1)c1ccc(F)cc1 [HALOPEMIDE]    5%
CC(C)COc1ccc(CNC(=O)N(Cc2ccc(F)cc2)C2CCN(C)CC2)cc1    10%
Cc1onc(-c2ccccc2Cl)c1C(=O)N(C)c1ccc(Cl)cc1    7%

# Population Fragmented Nuclei (%) lookup, item CN1CCN(c2cc(-c3ccccc3)nc(N)n2)CC1
7%
